Hey, just so you know, these numbers are from patent US5538981A.

target: 5-HT2 receptor (Rattus norvegicus, UniProt P14842)
Sequence (P14842 whole entry): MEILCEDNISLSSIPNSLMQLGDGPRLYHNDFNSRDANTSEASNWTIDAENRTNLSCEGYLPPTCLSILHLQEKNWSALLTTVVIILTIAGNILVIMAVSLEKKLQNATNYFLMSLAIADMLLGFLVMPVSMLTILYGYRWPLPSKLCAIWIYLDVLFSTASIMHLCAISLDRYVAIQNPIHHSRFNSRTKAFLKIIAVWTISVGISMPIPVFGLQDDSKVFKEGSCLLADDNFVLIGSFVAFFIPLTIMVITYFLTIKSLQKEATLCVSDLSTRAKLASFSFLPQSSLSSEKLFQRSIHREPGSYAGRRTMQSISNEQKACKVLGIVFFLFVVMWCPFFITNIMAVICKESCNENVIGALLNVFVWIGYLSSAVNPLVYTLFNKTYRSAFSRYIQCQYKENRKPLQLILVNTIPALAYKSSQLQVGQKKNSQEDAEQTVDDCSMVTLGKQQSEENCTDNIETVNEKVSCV
Where a name gives a salt, the structure may show the parent alone.
Below, each of the compounds is paired with its reported pIC50 value.
Please express pIC50 as -log10 of the molar concentration.

The following compounds have reported results that may help.
>  <compound>
COc1ccc(CC2NCCc3c2[nH]c2ccc(C)cc32)c2ccccc12 (racemic) [Example 1, hydrochloride]

>  <pIC50>
7.25

$$$$
>  <compound>
Cc1ccc2c3c([nH]c2c1Br)C(Cc1cccc2ccccc12)NCC3 (racemic) [Example 10, hydrochloride]

>  <pIC50>
6.85

$$$$
>  <compound>
Cc1ccc2[nH]c3c(c2c1)CCNC3Cc1cccc2ccccc12 (racemic) [Example 5, hydrochloride]

>  <pIC50>
6.57

$$$$
>  <compound>
Brc1ccc2[nH]c3c(c2c1)CCNC3Cc1cccc2ccccc12 (racemic) [Example 9]

>  <pIC50>
7.06

$$$$

Turning to the following compound.
API: value(readout= pIC50, system= 5-HT2 receptor (Rattus norvegicus, UniProt P14842), query= Brc1cccc2c3c([nH]c12)C(Cc1cccc2ccccc12)NCC3 (racemic) [Example 6] )
7.40

====

Biological target: 5-HT1c receptor (Bos taurus)
Sequence (A0AAA9SBU1 33-457): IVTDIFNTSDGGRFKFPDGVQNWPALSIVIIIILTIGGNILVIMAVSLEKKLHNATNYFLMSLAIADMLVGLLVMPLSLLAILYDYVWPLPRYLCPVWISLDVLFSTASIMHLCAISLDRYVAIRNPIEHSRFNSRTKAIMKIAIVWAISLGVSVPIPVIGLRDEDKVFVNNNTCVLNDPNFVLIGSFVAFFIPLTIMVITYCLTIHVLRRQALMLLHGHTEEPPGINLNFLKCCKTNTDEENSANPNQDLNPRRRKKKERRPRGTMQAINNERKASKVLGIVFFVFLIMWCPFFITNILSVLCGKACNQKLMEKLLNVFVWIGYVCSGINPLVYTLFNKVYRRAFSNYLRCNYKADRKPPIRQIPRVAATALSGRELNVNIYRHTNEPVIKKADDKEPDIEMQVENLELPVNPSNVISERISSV
Where a name gives a salt, the structure may show the parent alone.
readout_name: IC50 (nM)
The reply should contain only the number, in nM.

>  <molecule>
c1ccc2c(CC3NCCc4c3[nH]c3c4ccc4ccccc43)cccc2c1 (racemic)

>  <target_of_assay>
5-HT1c receptor (Bos taurus)

>  <readout_name>
IC50

>  <result>
61

$$$$
>  <molecule>
Brc1cccc2c3c([nH]c12)C(Cc1cccc2ccccc12)NCC3 (racemic)

>  <target_of_assay>
5-HT1c receptor (Bos taurus)

>  <readout_name>
IC50

>  <result>
13.2

$$$$
>  <molecule>
COc1ccc(CC2NCCc3c2[nH]c2ccc(C)cc32)c2ccccc12 (racemic) [Example 1, hydrochloride]

>  <target_of_assay>
5-HT1c receptor (Bos taurus)

>  <readout_name>
IC50

>  <result>
6.4

$$$$
>  <molecule>
Cc1ccc2[nH]c3c(c2c1)CCNC3C(C)c1cccc2ccccc12 (racemic)

>  <target_of_assay>
5-HT1c receptor (Bos taurus)

>  <readout_name>
IC50

>  <result>
6

$$$$

I am curious: what IC50 value has been reported for c1ccc2c(CC3NCCc4c3[nH]c3ccc(C5CCCCC5)cc43)cccc2c1 (racemic) [Example 11, hydrochloride] ?
189

# query: IC50 of entry Cc1ccc2c(c1)c1c(n2C)C(Cc2cccc3ccccc23)NCC1 (racemic) [Example 17, hydrochloride]
23

Could you share which IC50 value was measured for Cc1ccc2[nH]c3c(c2c1F)CCNC3Cc1cccc2ccccc12 (racemic) ?
16

Quick one: IC50 for Cc1ccc2c3c([nH]c2c1Br)C(Cc1cccc2ccccc12)NCC3 (racemic) [Example 10, hydrochloride] ?
44

Fill blank: measured IC50 of the molecule Cc1ccc2[nH]c3c(c2c1)CCN(C)C3Cc1cccc2ccccc12 (racemic) [Example 12, hydrochloride] is ____.
54

====

For reference, IC50 measured on 5-HT2 receptor (Rattus norvegicus):
Counter-ions that a name gives are not always drawn.

Examples with their reported IC50 follow.
>  <molecule>
COc1cccc2c3c([nH]c12)C(Cc1cccc2ccccc12)NCC3 (racemic)

>  <target_of_assay>
5-HT2 receptor (Rattus norvegicus)

>  <IC50>
65 nM

$$$$
>  <molecule>
Cc1ccc2[nH]c3c(c2c1)CCN[C@H]3Cc1cccc2ccccc12 [Example 18, hydrochloride]

>  <target_of_assay>
5-HT2 receptor (Rattus norvegicus)

>  <IC50>
108 nM

$$$$
>  <molecule>
Cc1ccc2[nH]c3c(c2c1)CCNC3C(C)c1cccc2ccccc12 (racemic)

>  <target_of_assay>
5-HT2 receptor (Rattus norvegicus)

>  <IC50>
> 100 nM

$$$$
>  <molecule>
CC(C)c1ccc2[nH]c3c(c2c1)CCNC3C(C)c1cccc2ccccc12 (racemic) [Example 4, hydrochloride]

>  <target_of_assay>
5-HT2 receptor (Rattus norvegicus)

>  <IC50>
> 100 nM

$$$$
>  <molecule>
CC(C)c1ccc2[nH]c3c(c2c1)CCNC3Cc1cccc2ccccc12 (racemic)

>  <target_of_assay>
5-HT2 receptor (Rattus norvegicus)

>  <IC50>
> 100 nM

$$$$
>  <molecule>
CC(C)(C)c1ccc2[nH]c3c(c2c1)CCNC3Cc1cccc2ccccc12 (racemic)

>  <target_of_assay>
5-HT2 receptor (Rattus norvegicus)

>  <IC50>
> 100 nM

$$$$

For Cc1ccc2[nH]c3c(c2c1)CCN(C)C3Cc1cccc2ccccc12 (racemic) [Example 12, hydrochloride] , what is its reported IC50?
> 100 nM

Recorded IC50 of Cc1ccc2c(c1)c1c(n2C)C(Cc2cccc3ccccc23)NCC1 (racemic) [Example 17, hydrochloride] , please.
> 100 nM

====

Target: 5-HT1c receptor (Bos taurus)
Construct: natural pool of RNA-edited forms
Sequence (A0AAA9SBU1 33-457): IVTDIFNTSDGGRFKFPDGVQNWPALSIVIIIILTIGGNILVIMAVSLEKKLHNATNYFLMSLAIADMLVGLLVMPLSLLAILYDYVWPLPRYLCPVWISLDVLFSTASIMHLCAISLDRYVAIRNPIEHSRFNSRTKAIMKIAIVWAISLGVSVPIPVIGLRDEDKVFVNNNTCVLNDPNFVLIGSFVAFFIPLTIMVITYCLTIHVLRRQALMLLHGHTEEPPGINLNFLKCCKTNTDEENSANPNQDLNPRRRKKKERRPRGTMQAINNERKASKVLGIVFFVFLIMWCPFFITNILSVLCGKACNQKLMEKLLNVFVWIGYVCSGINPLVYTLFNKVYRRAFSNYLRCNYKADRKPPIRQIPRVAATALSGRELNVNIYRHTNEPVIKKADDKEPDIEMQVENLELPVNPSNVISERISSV
Test: 5-HT1c receptor radioligand binding displacement assay ([3H]mesulergine, choroid plexus)
Design: species or system beef
Conditions: beef choroid plexus; tritiated mesulergine 2.0 nM; pH 7.4; 37° C., 15 min
Counter-ions that a name gives are not always drawn.
readout_name: IC50

// known answers, use as guide
>  <compound>
CC(C)c1ccc2[nH]c3c(c2c1)CCNC3Cc1cccc2ccccc12 (racemic)

>  <IC50>
9 nM

$$$$
>  <compound>
CC(C)(C)c1ccc2[nH]c3c(c2c1)CCNC3Cc1cccc2ccccc12 (racemic)

>  <IC50>
11 nM

$$$$
>  <compound>
Cc1cc(Br)c2[nH]c3c(c2c1)CCNC3Cc1cccc2ccccc12 (racemic)

>  <IC50>
60 nM

$$$$
>  <compound>
Cc1ccc2[nH]c3c(c2c1)CCNC3Cc1cccc2ccccc12 (racemic) [Example 5, hydrochloride]

>  <IC50>
30 nM

$$$$
>  <compound>
Brc1ccc2[nH]c3c(c2c1)CCNC3Cc1cccc2ccccc12 (racemic)

>  <IC50>
27 nM

$$$$
>  <compound>
CC(C)c1ccc2[nH]c3c(c2c1)CCNC3C(C)c1cccc2ccccc12 (racemic) [Example 4, hydrochloride]

>  <IC50>
14 nM

$$$$

If you can, please state the reported IC50 value of COc1cccc2c3c([nH]c12)C(Cc1cccc2ccccc12)NCC3 (racemic) .
63 nM

I'd like to know its IC50. The compound in question is Cc1ccc2[nH]c3c(c2c1)CCN[C@H]3Cc1cccc2ccccc12 [Example 18, hydrochloride]
< 100 nM
